I'd appreciate it if you could supply cytotoxicity at 10 µM values for the items below.
# Assay: Toxicity liver stage against HepG2, at 10uM
# Type: cell-based
# Parameters: test concentration 10 uM, cell line HepG2-A16-CD81EGFP
# Study conditions: human, HepG2-A16-CD81EGFP cells; read-out: INHIBITION
Mention the unit after the number when you answer.

Q) Name the recorded cytotoxicity at 10 µM for CC(=O)N1CCC2(CCN(CC(C)C)C2)C1 (stereo not given) .
A) 5.41%

Q) Name the recorded cytotoxicity at 10 µM for Cc1cccc(C2CCCN2C(=O)CCS(C)(=O)=O)c1C (stereo not given) .
A) -0.272%

Q) Name the recorded cytotoxicity at 10 µM for Cc1ncc(CN2CCC3(CC2)CC(=O)N(C)C3)cn1 .
A) 9.8%

Q) Name the recorded cytotoxicity at 10 µM for Cc1cc2cccc(C(=O)N3CCOC(CCN(C)C)C3)c2o1 (stereo not given) .
A) 5.91%

Q) Name the recorded cytotoxicity at 10 µM for CCS(=O)(=O)CCN1CCN(C(C)c2cccnc2)CC1 (stereo not given) .
A) 8.65%

Q) Name the recorded cytotoxicity at 10 µM for Cc1ccc(-c2n[nH]cc2CN(Cc2nccn2C)C(C)C)cc1C .
A) 2.57%

Q) Name the recorded cytotoxicity at 10 µM for CSCCC(NC(=O)c1ccc2ccccc2n1)C(=O)O (stereo not given) .
A) -3.09%

Q) Name the recorded cytotoxicity at 10 µM for Cc1nn(C)c(C)c1CC(=O)N1CCCC(n2ccnc2C)C1 (stereo not given) .
A) -5.36%

Q) Name the recorded cytotoxicity at 10 µM for CC1=Nc2c(c(=O)[nH]n2C2CCCC2)C(c2cccnc2)S1 (stereo not given) .
A) -0.955%

Q) Name the recorded cytotoxicity at 10 µM for CCc1ocnc1C(=O)Nc1ccc2ccn(CCN(C)C)c2c1 .
A) 4.81%

Q) Name the recorded cytotoxicity at 10 µM for Cn1cc(C2(C)CN(Cc3ccc(O)c(Cl)c3)CCO2)cn1 (stereo not given) .
A) -4.12%

Q) Name the recorded cytotoxicity at 10 µM for COCc1cc(NCc2ccccc2OC)ncn1 .
A) 7.69%

Q) Name the recorded cytotoxicity at 10 µM for Cc1noc(Cl)c1CC(=O)NCCOc1ccc(F)cc1F .
A) -2.64%

Q) Name the recorded cytotoxicity at 10 µM for CCOC(=O)C1CCN(C(=O)Cc2c(C)nc(C)[nH]c2=O)CC1 .
A) 16.6%

Q) Name the recorded cytotoxicity at 10 µM for CC(CNC(=O)NCc1ccco1)CC1(C)OCCO1 (stereo not given) .
A) -7.25%

Q) Name the recorded cytotoxicity at 10 µM for O=C(NCc1ccccn1)NCC(O)c1ccccc1C(F)(F)F (stereo not given) .
A) -0.36%

Q) Name the recorded cytotoxicity at 10 µM for CC(C)Cc1nc(NC(=O)c2cccnc2)n[nH]1 .
A) -1.18%

Q) Name the recorded cytotoxicity at 10 µM for CC(=O)N1CCC(NC(=O)N2CCCC2c2ccsc2)CC1 (stereo not given) .
A) 0.421%

Q) Name the recorded cytotoxicity at 10 µM for CCC(C(=O)NCc1ccccn1)N(c1cccc(C)c1)S(C)(=O)=O (stereo not given) .
A) 0.383%

Q) Name the recorded cytotoxicity at 10 µM for COc1cccc(CSc2nnc(C)n2CC(N)=O)c1 .
A) 3.59%

Q) Name the recorded cytotoxicity at 10 µM for Cn1cccc1C(=O)N1CCc2c(CNS(C)(=O)=O)cncc2C1 .
A) 4.68%

Q) Name the recorded cytotoxicity at 10 µM for O=C(c1ccco1)N1CCC(n2nc(-c3ccco3)ccc2=O)CC1 .
A) -20.5%

Q) Name the recorded cytotoxicity at 10 µM for CCOC(=O)NCCC(=O)NCc1ccc(Oc2cccc(F)c2)nc1 .
A) 10.9%

Q) Name the recorded cytotoxicity at 10 µM for CN1C(=O)CO[C@H](c2ccc(NC(=O)c3cccc(F)c3)cc2)[C@H]1CO .
A) 10%

Q) Name the recorded cytotoxicity at 10 µM for Cc1ncccc1OC1(C(=O)NCc2noc(C(C)C)n2)CCNCC1 .
A) 5.68%

----------
I'd appreciate it if you could supply cytotoxicity at 10 µM values for the items below.
# Assay: Toxicity liver stage against HepG2, at 10uM
# Assay type: cell-based
# Parameters: test concentration 10 uM, cell line HepG2-A16-CD81EGFP
# Study conditions: human, HepG2-A16-CD81EGFP cells; read-out: INHIBITION
Respond numerically; units are % and should not be typed.

Q) Name the recorded cytotoxicity at 10 µM for CCOc1ncccc1NC(=O)NC1CCN(c2ncccn2)CC1 .
A) -33.3

Q) Name the recorded cytotoxicity at 10 µM for Cc1cc2n(n1)CC(CNCc1ccccc1-n1cccn1)CN2 (stereo not drawn) .
A) -11.5

Q) Name the recorded cytotoxicity at 10 µM for O=C(NCc1ccco1)[C@H]1C[C@@H]2CCN(c3cccc(F)c3)C[C@H]2O1 .
A) 8.68

Q) Name the recorded cytotoxicity at 10 µM for O=C(CCn1ccc2cc(Br)ccc21)NCc1ccc(C(=O)O)cc1 .
A) -11.8

Q) Name the recorded cytotoxicity at 10 µM for CN1CCC(Cc2noc(-c3cccc(Oc4ncccn4)c3)n2)CC1 .
A) -5.21

Q) Name the recorded cytotoxicity at 10 µM for CCSCCC(C)N(C)C(=O)c1cc(C)no1 (stereo not drawn) .
A) -9.99

Q) Name the recorded cytotoxicity at 10 µM for CS(=O)(=O)N1CCc2[nH]nc(Cc3cccs3)c2C1 .
A) 1.44

Q) Name the recorded cytotoxicity at 10 µM for CC(C)c1noc(C2CCN(S(=O)(=O)c3cccs3)CC2)n1 .
A) 1.47

Q) Name the recorded cytotoxicity at 10 µM for CC(C)NC(=O)c1cc(Br)cc(S(=O)(=O)N2CCOCC2)c1F .
A) 6.17

Q) Name the recorded cytotoxicity at 10 µM for Cc1ncsc1C(=O)N1CC[C@@H]2[C@@H](CC1)OCCN2c1cccnc1 .
A) 9.4

Q) Name the recorded cytotoxicity at 10 µM for c1ccc(CCc2n[nH]c(C3CCOC3)n2)cc1 (stereo not drawn) .
A) 2.78

Q) Name the recorded cytotoxicity at 10 µM for Cc1nsc(NC(=O)NC2CCCOC2)n1 (stereo not drawn) .
A) 16

Q) Name the recorded cytotoxicity at 10 µM for COc1cccc2c1OCC(C(=O)N1CCN(S(C)(=O)=O)CC1)C2 (stereo not drawn) .
A) -7.23

Q) Name the recorded cytotoxicity at 10 µM for CC(C)N(CCNC(=O)c1ccc(S(=O)(=O)NC2CC2)cc1)C(C)C .
A) -65.8

Q) Name the recorded cytotoxicity at 10 µM for Cc1nn(C)c(C)c1CC(=O)NCc1ccnc(N2CCOCC2)c1 .
A) -14.7

Q) Name the recorded cytotoxicity at 10 µM for CCNC(=O)C(C)(C)NC(=O)NCc1cccc(Br)c1 .
A) 8.44

Q) Name the recorded cytotoxicity at 10 µM for O=C(O)C1CN(c2cccc(Cl)c2)CCO1 (stereo not drawn) .
A) -12.4

Q) Name the recorded cytotoxicity at 10 µM for CCN1CCN(CC(O)c2ccc(F)cc2)CC1 (stereo not drawn) .
A) -9.41

Q) Name the recorded cytotoxicity at 10 µM for CNC(=O)C1CCN(C(=O)c2cccn2Cc2cccs2)CC1 .
A) -3.74

Q) Name the recorded cytotoxicity at 10 µM for Cc1cc(OCC(=O)NC(C)c2ccc(N3CCOCC3)cc2)no1 (stereo not drawn) .
A) -12.9

Q) Name the recorded cytotoxicity at 10 µM for COc1ccc(NCc2c[nH]nc2-c2cccnc2)cc1 .
A) -16.8

Q) Name the recorded cytotoxicity at 10 µM for CN1CCN(Cc2ccncc2)C(=O)C12CCN(c1nccs1)CC2 .
A) -2.82

Q) Name the recorded cytotoxicity at 10 µM for O=C(CN1CCCC1Cn1cncn1)NCCC1=CCCCC1 (stereo not drawn) .
A) -16.5

Q) Name the recorded cytotoxicity at 10 µM for COc1cccc(CNCc2cccc(Cl)c2)c1O .
A) 1.29

Q) Name the recorded cytotoxicity at 10 µM for Cc1nc(CCNC(=O)NCC(O)c2cccc(Cl)c2)cs1 (stereo not drawn) .
A) 14

Q) Name the recorded cytotoxicity at 10 µM for Cc1n[nH]c(C)c1CNC(=O)CSCc1ccccc1Cl .
A) -4.02

Q) Name the recorded cytotoxicity at 10 µM for CCCNC(=O)C(C)NC(=O)CCc1ccccc1Br (stereo not drawn) .
A) 14.5

Q) Name the recorded cytotoxicity at 10 µM for Cc1ncsc1CN1CC[C@H]2C[C@H](c3ccncn3)O[C@@H]2C1 .
A) 4.87

Q) Name the recorded cytotoxicity at 10 µM for CCS(=O)(=O)N1C[C@@H]2CN(Cc3cnn(C)c3)CCO[C@@H]2C1 .
A) -0.646

Q) Name the recorded cytotoxicity at 10 µM for COC(=O)CCCNC(=O)N1CCc2c([nH]c3ccc(Cl)cc23)C1 .
A) 9.43

Q) Name the recorded cytotoxicity at 10 µM for O=C(COCC1CC1)N1CCSCC1 .
A) -21.2

Q) Name the recorded cytotoxicity at 10 µM for Cn1ccc(NC(=O)CN2CCN(C3CCCC3)C(=O)C2)n1 .
A) 4.31

Q) Name the recorded cytotoxicity at 10 µM for O=C(Nc1ccc(CCN2CCC(O)CC2)cc1)Nc1cccnc1 .
A) -7.15

Q) Name the recorded cytotoxicity at 10 µM for CC1=Nc2c(c(=O)[nH]n2C(C)C)C(c2cccs2)S1 (stereo not drawn) .
A) 3.67

Q) Name the recorded cytotoxicity at 10 µM for CC(=O)N1CCC(N2CC(Cc3nccc4ccn(C)c34)C2)CC1 .
A) 17.7

Q) Name the recorded cytotoxicity at 10 µM for N#Cc1cn(CC(=O)NC2CC2)c2ccc(Br)cc2c1=O .
A) 27.4

Q) Name the recorded cytotoxicity at 10 µM for CCOc1ncccc1NC(=O)NC1CCCN(c2ncccn2)C1 (stereo not drawn) .
A) -10.6

Q) Name the recorded cytotoxicity at 10 µM for CC(NC(=O)c1cccc(CN2CCN(C)CC2)c1)c1nccs1 (stereo not drawn) .
A) -4.28

Q) Name the recorded cytotoxicity at 10 µM for CCN1CCN(C2CCN(Cc3nnc(C4CC4)o3)CC2)C1=O .
A) 1.75

Q) Name the recorded cytotoxicity at 10 µM for O=C(Nc1ccc(F)c(Br)c1)N1CCCC1 .
A) 2.32

Q) Name the recorded cytotoxicity at 10 µM for NC(=O)C1CCN(C(=O)c2ccc(Sc3ccccn3)cc2)CC1 .
A) 9.48

Q) Name the recorded cytotoxicity at 10 µM for COc1ccccc1-c1cc(C(=O)Nc2nc[nH]n2)[nH]n1 .
A) -2.2

Q) Name the recorded cytotoxicity at 10 µM for CN1CCN(CCCNCc2cc(O)c3cc(F)ccc3n2)CC1 .
A) -45.4

Q) Name the recorded cytotoxicity at 10 µM for CCOCC1CN(C(=O)c2ccoc2)Cc2cnn(C)c21 (stereo not drawn) .
A) 0.13

Q) Name the recorded cytotoxicity at 10 µM for O=C1NCCCc2[nH]c(Cc3cccc(Cl)c3)nc21 .
A) 13

Q) Name the recorded cytotoxicity at 10 µM for Cc1cc(-c2cnc(NC3CC3)nc2-c2ccoc2C)on1 .
A) 2.13

Q) Name the recorded cytotoxicity at 10 µM for O=C(CN1C(=O)CC2(CCCC2)C1=O)NCCc1nccs1 .
A) 0.566

Q) Name the recorded cytotoxicity at 10 µM for CN1CC2(CCCCN2C(=O)c2ccsc2)CC1=O (stereo not drawn) .
A) 2.73
